Exercise: state measured IC50 for each of the compounds provided.
- System: cancer cell lines
- ASSAY EXPLANATION: Cancer cell proliferation activity (CellTiterGlo, 72 h)
- Format: cell-based
- CONDITION DETAILS: Homo sapiens, RD, 72 h, RD cell line (muscle), 72 h; read-out: IC50
- Description: Dose response relationships on cell proliferation was assessed for representative Compounds of the Disclosure on cancer cell lines. […] Cells were cultured in the appropriate media. […] After incubation for 72 h at 37° C. at 5% or 10% CO2 dependent on the medium, cell plates were equilibrated to room temperature for one hour, CellTiterGlo reagent (Promega) was added and luminescence was measured approximately an hour later using a luminometer. […]
Numbers only, in nM.

Solved cases (3 shown):
CC[C@]1(CO)O[C@@H](n2cnc3c(N)nc(F)nc32)C[C@@H]1O [Cpd. No. 1]	1460
C[C@]1(CO)O[C@@H](n2cc(F)c(=O)[nH]c2=O)C[C@@H]1O [Cpd. No. 105]	3490
Nc1nc(F)nc2c1ncn2[C@H]1C[C@H](O)[C@](CO)(CF)O1 [compound 150]	6720

[Q] Looking for the measured IC50 of CC[C@]1(CO)O[C@@H](n2cnc3c(N)nc(F)nc32)[C@H](O)[C@@H]1O [Cpd. No. 173] , can you help?
[A] 190

----------
- Tested on: cancer cell lines
- ASSAY EXPLANATION: Cancer cell proliferation activity (CellTiterGlo, 72 h)
- Type: cell-based
- CONDITION DETAILS: Homo sapiens, SNB-75, 72 h, SNB75 (brain), 72 h; read-out: IC50 cell proliferation
- Protocol: Dose response relationships on cell proliferation was assessed for representative Compounds of the Disclosure on cancer cell lines. […] Cells were cultured in the appropriate media. […] After incubation for 72 h at 37° C. at 5% or 10% CO2 dependent on the medium, cell plates were equilibrated to room temperature for one hour, CellTiterGlo reagent (Promega) was added and luminescence was measured approximately an hour later using a luminometer. […]
MEASUREMENT KIND: pIC50
Numbers only, as −log10 of the molar value.

Solved cases below.
C[C@]1(CO)O[C@@H](n2cnc3c(N)nc(F)nc32)[C@H](O)[C@@H]1O [Cpd. No. 178]	6.80
CCC[C@]1(CO)O[C@@H](n2cnc3c(N)nc(F)nc32)[C@H](O)[C@@H]1O [compound 195]	6.66

Fill in pIC50 for each of the 2 compounds listed.
1. Nc1nc(F)nc2c1ncn2[C@H]1C[C@H](O)[C@@H](CO)O1 [compound 171]
2. Nc1nc(F)nc2c1ncn2[C@@H]1O[C@H](CO)[C@@H](O)[C@@H]1O [compound 170]

[A]
5.83
4.30

----------
Please respond with reported IC50 for every item in the list.
- System: cancer cell lines
- ASSAY EXPLANATION: Cancer cell proliferation activity (CellTiterGlo, 72 h)
- Type: cell-based
- CONDITION DETAILS: 72 h, SKMELS cell line, 72 h; read-out: IC50
Numbers only, in µM.

Worked set:
Nc1ccn([C@@H]2O[C@H](CO)[C@@H](O)C2(F)F)c(=O)n1 [gemcitabine, reference compound]	0.0032
CC(C)C[C@]1(CO)O[C@@H](n2cnc3c(N)nc(F)nc32)C[C@@H]1O	4.92

Turning now to a further record.
[Q] Query for cancer cell lines: what IC50 does the record show for C[C@]1(CO)O[C@@H](n2cc(F)c(=O)[nH]c2=O)C[C@@H]1O ?
[A] 5.1
